All figures here come from ChEMBL document CHEMBL1629612.

Tested on: Klebsiella pneumoniae
Assay: Antimicrobial activity against Klebsiella pneumoniae expressing beta-lactamase SHV by Etest based on multiple determinants
Assay type: functional
Overview of reported MIC across a group of compounds:
metric name: MIC (µg/mL)

INSERT INTO measurements (compound, metric_name, experimental_value) VALUES
  ('C[C@@H](O)[C@H]1C(=O)N2C(C(=O)O)=C(SCCNC=N)C[C@H]12 [IMIPENEM ANHYDROUS]', 'MIC', 0.12),
  ('CO/N=C(\C(=O)N[C@@H]1C(=O)N2C(C(=O)O)=C(CSc3nc(=O)c(O)nn3C)CS[C@H]12)c1csc(N)n1', 'MIC', 2),
  ('CO/N=C(\C(=O)N[C@@H]1C(=O)N2C(C(=O)[O-])=C(C[N+]3(C)CCCC3)CS[C@H]12)c1csc(N)n1 [CEFEPIME]', 'MIC', 2);

====

System: Escherichia coli
Assay: Antimicrobial activity against Escherichia coli extended-spectrum beta-lactamase producing isolate by Etest
Format: functional
Property: MIC90; scope: individual molecules
metric name: MIC90 (µg/mL)

INSERT INTO results (molecule, unit_annotation, value_operator, experimental_value) VALUES
  ('CC(C)(O/N=C(\C(=O)N[C@@H]1C(=O)N2C(C(=O)[O-])=C(C[n+]3ccccc3)CS[C@H]12)c1csc(N)n1)C(=O)O', 'µg/mL', '>', 64),
  ('CO/N=C(\C(=O)N[C@@H]1C(=O)N2C(C(=O)O)=C(CSc3nc(=O)c(O)nn3C)CS[C@H]12)c1csc(N)n1', 'µg/mL', '>', 32),
  ('CO/N=C(\C(=O)N[C@@H]1C(=O)N2C(C(=O)O)=C(COC(C)=O)CS[C@H]12)c1csc(N)n1', 'µg/mL', '>', 32),
  ('CN(C)c1ccc(O)c2c1C[C@H]1C[C@H]3[C@H](N(C)C)C(O)=C(C(N)=O)C(=O)[C@@]3(O)C(O)=C1C2=O', 'µg/mL', '=', 32),
  ('C[C@@H](O)[C@H]1C(=O)N2C(C(=O)O)=C(SCCNC=N)C[C@H]12 [IMIPENEM ANHYDROUS]', 'µg/mL', '=', 0.25);

====

Tested on: Escherichia coli
Assay: Antimicrobial activity against Escherichia coli expressing beta-lactamase CTX by Etest based on single determinant
Format: functional
metric name: MIC90 (µg/mL)

INSERT INTO assay_data (compound, value_operator, experimental_value) VALUES
  ('C[C@@H](O)[C@H]1C(=O)N2C(C(=O)O)=C(SCCNC=N)C[C@H]12 [IMIPENEM ANHYDROUS]', '=', 0.25),
  ('C[C@H]1COc2c(N3CCN(C)CC3)c(F)cc3c(=O)c(C(=O)O)cn1c23.C[C@H]1COc2c(N3CCN(C)CC3)c(F)cc3c(=O)c(C(=O)O)cn1c23.O', '>', 16),
  ('NC[C@H]1O[C@H](O[C@H]2[C@H](O)[C@@H](O[C@H]3O[C@H](CO)[C@@H](O)[C@H](N)[C@H]3O)[C@H](N)C[C@@H]2N)[C@H](N)C[C@@H]1O', '>', 32),
  ('CO/N=C(\C(=O)N[C@@H]1C(=O)N2C(C(=O)O)=C(COC(C)=O)CS[C@H]12)c1csc(N)n1', '>', 32),
  ('CO/N=C(\C(=O)N[C@@H]1C(=O)N2C(C(=O)[O-])=C(C[N+]3(C)CCCC3)CS[C@H]12)c1csc(N)n1 [CEFEPIME]', '>', 16),
  ('CN(C)c1ccc(O)c2c1C[C@H]1C[C@H]3[C@H](N(C)C)C(O)=C(C(N)=O)C(=O)[C@@]3(O)C(O)=C1C2=O', '=', 32),
  ('CO/N=C(\C(=O)N[C@@H]1C(=O)N2C(C(=O)O)=C(CSc3nc(=O)c(O)nn3C)CS[C@H]12)c1csc(N)n1', '>', 32),
  ('CC(C)(O/N=C(\C(=O)N[C@@H]1C(=O)N2C(C(=O)[O-])=C(C[n+]3ccccc3)CS[C@H]12)c1csc(N)n1)C(=O)O', '=', 64),
  ('CN(C)c1cc(NC(=O)CNC(C)(C)C)c(O)c2c1C[C@H]1C[C@H]3[C@H](N(C)C)C(O)=C(C(N)=O)C(=O)[C@@]3(O)C(O)=C1C2=O', '=', 0.5);
